- TEST PROTOCOL: qHTS assay to identify small molecule that activate the aryl hydrocarbon receptor (AhR) signaling pathway - cell viability counter screen (AID 743086); note: nearly all actives have a fitted effect of over 45% in size
- TEST CONTEXT: HepG2-AhR-luc viability, CellTiter-Fluor, 24 h; series mostly up to 70.3 µM
Inconclusive results are not listed. Calls of active or inactive are those of the source. Calls come from the whole dose curve; as a rule, active = well fitted cell-killing curve with a large enough effect in the repeat runs; inconclusive = weak or mixed curves, or effect the other way; inactive = flat fitted curve, though single readings scatter.
Your answer must be one of the following: active, inactive

Some solved cases for reference:
Nc1ccc(C(=O)O)c(O)c1 :: inactive
COC(=O)Nc1nc2ccc(C(=O)c3ccccc3)cc2[nH]1 :: inactive
COc1cc(S(=O)(=O)O)c(C)cc1N=Nc1c(O)ccc2cc(S(=O)(=O)O)ccc12 :: active
Nc1nc(N)nc(-c2cc(Cl)ccc2Cl)n1 :: inactive
CCn1c2ccccc2c2cc([N+](=O)[O-])ccc21 :: inactive

Continue with the compound presented below.
What was the test verdict on Cc1nc2n(c(=O)c1CCN1CCC(c3noc4cc(F)ccc34)CC1)CCCC2 ?
inactive
